Hey, just so you know, these numbers are from the supplement of paper PMC6757056.

Can you tell me normalized RNA/DNA level without ligand (log10) for the items I'm about to list?
B1: library; a variant is named by its letters at N, in order (parent)
chain: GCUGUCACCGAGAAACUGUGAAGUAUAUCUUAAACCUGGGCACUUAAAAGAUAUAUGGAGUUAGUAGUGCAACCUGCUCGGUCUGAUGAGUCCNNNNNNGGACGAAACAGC

Variants of: B1
Assay: normalized RNA/DNA level without ligand (relative to sTRSVctl = 100) (log10 (% of sTRSVctl)); HEK293T; ligand: cyclic di-GMP (c-di-GMP-II aptamer); higher = less ribozyme self-cleavage, higher mRNA level
Conditions: reporter: mCherry (pCS4076), ligand present: no
Answer field: number only, no words.

Reported normalized RNA/DNA level without ligand (log10) for `AAUGUA` was 1.52

Reported normalized RNA/DNA level without ligand (log10) for `UAGGGG` was 1.56

Reported normalized RNA/DNA level without ligand (log10) for `CAAUAU` was 1.49

Reported normalized RNA/DNA level without ligand (log10) for `GUGCAG` was 1.86

Reported normalized RNA/DNA level without ligand (log10) for `AUAAUA` was 1.58

Reported normalized RNA/DNA level without ligand (log10) for `GUAUGU` was 1.6

Reported normalized RNA/DNA level without ligand (log10) for `UCUGGU` was 1.66

Reported normalized RNA/DNA level without ligand (log10) for `AUCGAC` was 1.63

Reported normalized RNA/DNA level without ligand (log10) for `GGUAUC` was 1.63

Reported normalized RNA/DNA level without ligand (log10) for `GUCGUU` was 1.61

Reported normalized RNA/DNA level without ligand (log10) for `ACAGCC` was 1.66

Reported normalized RNA/DNA level without ligand (log10) for `AACUCC` was 1.82

Reported normalized RNA/DNA level without ligand (log10) for `CUCAUG` was 1.68

Reported normalized RNA/DNA level without ligand (log10) for `GCGUGG` was 1.71

Reported normalized RNA/DNA level without ligand (log10) for `GAUCCA` was 1.71

Reported normalized RNA/DNA level without ligand (log10) for `UUCCAA` was 1.7

Reported normalized RNA/DNA level without ligand (log10) for `UAGGGC` was 1.64

Reported normalized RNA/DNA level without ligand (log10) for `ACCUGU` was 1.72

Reported normalized RNA/DNA level without ligand (log10) for `AAUCUU` was 1.74

Reported normalized RNA/DNA level without ligand (log10) for `CAUCUG` was 1.76
